Biological target: mouse sEH (Mus musculus)
Sequence (P34914 whole entry): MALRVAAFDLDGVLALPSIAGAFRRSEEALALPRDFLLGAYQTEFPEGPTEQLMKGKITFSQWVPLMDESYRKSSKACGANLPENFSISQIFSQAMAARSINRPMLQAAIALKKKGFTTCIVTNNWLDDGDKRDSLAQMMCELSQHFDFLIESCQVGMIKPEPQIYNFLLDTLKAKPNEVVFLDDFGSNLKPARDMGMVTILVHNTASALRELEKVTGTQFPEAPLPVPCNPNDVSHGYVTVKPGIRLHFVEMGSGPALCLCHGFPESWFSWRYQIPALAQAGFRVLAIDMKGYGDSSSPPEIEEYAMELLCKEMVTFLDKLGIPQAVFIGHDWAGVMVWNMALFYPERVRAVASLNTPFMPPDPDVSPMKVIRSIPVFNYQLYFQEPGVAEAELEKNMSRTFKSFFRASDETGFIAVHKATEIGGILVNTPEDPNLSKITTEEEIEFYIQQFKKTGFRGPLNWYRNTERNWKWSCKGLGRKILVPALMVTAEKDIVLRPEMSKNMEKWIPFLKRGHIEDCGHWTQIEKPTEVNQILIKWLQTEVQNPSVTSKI
Experiment: fluorogenic substrate hydrolase assay
Settings: recombinant purified enzyme, average of triplicates
endpointName: IC50 (nM)

# annotated cases, reported IC50 shown
compound	unitInfo	valueMeasured
O=C(COc1ccc(C2CCC(=O)NC2=O)cc1)NCCOCCOCCOCCOCCNC(=O)c1ccc(O[C@H]2CC[C@H](NC(=O)Nc3ccc(OC(F)(F)F)cc3)CC2)cc1 (stereo partly drawn) [compound 3]	nM	4.7
O=C(COc1cccc2c1C(=O)N(C1CCC(=O)NC1=O)C2=O)NCCOCCOCCOCCOCCNC(=O)c1ccc(O[C@H]2CC[C@H](NC(=O)Nc3ccc(OC(F)(F)F)cc3)CC2)cc1 (stereo partly drawn) [1a, compound 1a]	nM	4
O=C(COc1ccc(N2CCC(=O)NC2=O)cc1)NCCOCCOCCOCCOCCNC(=O)c1ccc(O[C@H]2CC[C@H](NC(=O)Nc3ccc(OC(F)(F)F)cc3)CC2)cc1 [compound 4]	nM	6
O=C1CCC(N2C(=O)c3ccc(NCCOCCOCCOCCOCCNC(=O)c4ccc(O[C@H]5CC[C@H](NC(=O)Nc6ccc(OC(F)(F)F)cc6)CC5)cc4)cc3C2=O)C(=O)N1 (stereo partly drawn) [compound 2]	nM	0.64
Cc1ncsc1-c1ccc(CNC(=O)[C@@H]2C[C@@H](O)CN2C(=O)[C@@H](NC(=O)CCCCCCC(=O)N2CCC(NC(=O)Nc3ccc(OC(F)(F)F)cc3)CC2)C(C)(C)C)cc1 [compound 12]	nM	3.1
O=C1CCC(N2C(=O)c3cccc(NCCOCCOCCC(=O)N4CCC(NC(=O)Nc5ccc(OC(F)(F)F)cc5)CC4)c3C2=O)C(=O)N1 (stereo not drawn) [compound 10]	nM	3

a: O=C1CCC(N2C(=O)c3cccc(NCCCCCC(=O)N4CCC(NC(=O)Nc5ccc(OC(F)(F)F)cc5)CC4)c3C2=O)C(=O)N1 (stereo not drawn) [compound 9]
b: Cc1ccc(C(=O)NCCOCCOCCOCCOCCNC(=O)c2ccc(O[C@H]3CC[C@H](NC(=O)Nc4ccc(OC(F)(F)F)cc4)CC3)cc2)cc1N1CCC(=O)NC1=O [compound 5]
Q. I need your help: which of the pair a , b has higher IC50? Give the chosen item's label as your response.
A. b
